Assay: NCI Yeast Anticancer Drug Screen. Data for the cln2 rad14 strain (AID 165);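 further: 0% = growth equal to vehicle treated cultures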
Settings: S. cerevisiae cln2 rad14 strain, at 5.0 µM (retest, dose inferred, filed as 0.5), active compounds read high
This is part of a sample that, as a whole, favours compounds with a hit. Of some 79,000 tested, about 15% had one in any assay.
Observable: growth inhibition (%)

> print(dat)
                                    compound  unit.info  readout.value
 1        COc1cc(CNC(=O)CCCCCCCCCCSC#N)ccc1O          %              1
 2  OCC(O)C(O)C(O)C(/C=N/Nc1ccccc1)=N\Nc1ccccc1 (centres undefined)          %            -41
 3           C(=C\N1CCCCC1)/c1nnnn1-c1ccccc1          %            -17
 4            CN(C)Cc1ccc2[nH]c3c(c2c1)CCCC3          %              0
 5                          ClC/C=C/c1ccccc1          %              6
 6  Cc1c(Cl)ccc2c1NC(=O)C2(O)CC(=O)c1ccc(Cl)cc1 (centres undefined)          %             31
 7          CCC(CC)C(c1ccc(O)cc1)c1ccc(O)cc1          %             97
 8  O=C1/C(=C/c2ccc([N+](=O)[O-])cc2)CNC/C1=C\c1ccc([N+](=O)[O-])cc1          %             73
 9  O=C(c1cccs1)N(C(=S)N1CCN(c2ccccn2)CC1)c1ccccc1          %              6
10  CSc1nc2c(c(=O)[nH]1)C1C=C(C)CCC1C(C)(C)C2 (centres undefined)          %             -3
11  CCCC(=O)N(C(=O)CCC)C1=C(Cl)C(=O)c2ccccc2C1=O          %             33
12  OC1CC2CCC(C1)N2CCCN1c2ccccc2Sc2ccc(Cl)cc21 (centres undefined)          %            -23
13  COc1ccc2c(c1)CC[C@@H]1[C@@H]2CC[C@]2(C)/C(=N/OCCN3CCCC3)CC[C@@H]12          %             46
14  CC1C(C(=O)O)CC([N+](=O)[O-])C(Cl)C1[N+](=O)[O-] (centres undefined)          %             15
15                        Oc1cc(F)cc2cccnc12          %             88
16                   COC(=O)/C=C(\Cl)C(=O)OC          %             19
17    S=c1c2cn[nH]c2nc2scc(-c3ccc(Cl)cc3)n12          %             24
18  COC(=O)[C@]1(C)CCCC2(C)C3=C(CCC21)CC1(CC3)SCCS1 (some centres undefined)          %             46
19   CCCOc1cc(C(=O)OCCN(CC)CC)cc(OCCC)c1OCCC          %              8
20  N#CCC(=O)N/N=C(/CC1(O)C(=O)Nc2c(Cl)cc(Cl)cc21)c1ccccc1 (centres undefined)          %             -7
21  S=C1NC2=C(CSC/C2=C\c2cccc(Br)c2)C(c2cccc(Br)c2)N1 (centres undefined)          %             -8
22  COC(=O)c1c(C)cccc1C1CN=NC12Cc1ccc(C)c(C)c1C2=O (centres undefined)          %              1
23                   CC(=O)C(=C(I)I)c1ccccc1          %              8
24  Oc1cc2c(cc1C(c1ccc(F)cc1)N1CCCCC1)OCO2 (centres undefined)          %             -4

Source: PubChem BioAssay (NCI)
